Molecular target: T1, soluble human IL-4Rα (sIL-4Rα; PEPRO TECH, Catalog Number: 200-04R) (human, UniProt P24394 26-232)
T1 construct: Bought protein; also called shIL-4Rα; soluble hIL-4 Rα
T1 sequence: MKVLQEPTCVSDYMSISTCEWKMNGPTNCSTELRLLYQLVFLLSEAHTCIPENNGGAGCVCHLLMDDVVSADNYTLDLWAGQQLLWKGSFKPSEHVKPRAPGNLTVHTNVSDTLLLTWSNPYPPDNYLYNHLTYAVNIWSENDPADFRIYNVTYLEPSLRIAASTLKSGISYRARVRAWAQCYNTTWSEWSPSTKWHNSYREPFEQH
Test: ELISA, coated sIL-4Rα, culture supernatant
For each of the binders below, state its OD450/OD450 Control antibody 1.

Sample records with OD450/OD450 Control antibody 1:
>>> measurement("L1001H1000 (antibody, V domains shown) VH: EVQLVQSGGGLVHPGGSLRLSCAGSGFTFSRNAMFWVRQAPGKGLEWVSGIGTGGATNYADSVKGRFTISRDNAKNSLYLQMNSLRAEDMAVYYCARGRYYFDYWGQGTLVTVSS VL: EIVLTQSPGTLSLSPGERATLSCRASQSVSNSYLAWYQQKPGQAPRLLIYGASSRAPGIPDRFSGSGSGTDFTLTISRLEPEDFAVYYCQQYDHSAGWTFGQGTKVEIK")
"1.56 ratio to control antibody 1"
>>> measurement("L1021H1007 (antibody, V domains shown) VH: EVQLVQSGGGLVHPGGSLRLSCAGSGFTFSRNAMFWVRQAPGKGLEWVSGIGTGGATSYADSVKGRFTISRDNAKNSLYLQMNSLRAEDMAVYYCARGRYYFDYWGQGTLVTVSS VL: EIVLTQSPGTLSLSPGERATLSCRASQSVSSSYLAWYQQKPGQAPRLLIFGASSRAPGIPDRFSGSGSGTDFTLTISRLEPEDFAVYYCQQYDHSAGWTFGQGTKVEIK")
"0.44 ratio to control antibody 1"
>>> measurement("L1020H1031 (antibody, V domains shown) VH: EVQLVESGGGLVQPGGSLRLSCAASGFTFSRNAMFWVRQAPGKGLEWVSGIGTGGATSYADSVKGRFTISRDNAKNSLYLQMNSLRAEDTAVYYCARGRYYFDYWGQGTLVTVSS VL: EIVLTQSPGTLSLSPGERATLSCRASQSVSSSYLAWYQQKPGQAPRLLIYGASSRATGIPDRFSGSGSGTDFTLTISRLEPEDFAVYYCQQYDHSAGWTFGQGTKVEIK")
"1.12 ratio to control antibody 1"
>>> measurement("L1015H1000 (antibody, V domains shown) VH: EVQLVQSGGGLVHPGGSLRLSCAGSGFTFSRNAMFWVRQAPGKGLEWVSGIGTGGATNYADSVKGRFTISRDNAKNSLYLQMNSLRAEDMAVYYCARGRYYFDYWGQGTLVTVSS VL: EIVLTQSPGTLSLSPGERATLSCRASQSVSSSYLAWYQQKPGQAPRLLIFGASSRAPGIPDRFSGSGSGTDFTLTISRLEPEDFAVYYCQQYDHSPPWTFGQGTKVEIK")
"0.67 ratio to control antibody 1"
>>> measurement("L1022H1000 (antibody, V domains shown) VH: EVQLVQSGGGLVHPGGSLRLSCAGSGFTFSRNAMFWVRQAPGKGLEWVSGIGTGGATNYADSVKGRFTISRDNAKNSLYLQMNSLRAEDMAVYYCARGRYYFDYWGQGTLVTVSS VL: EIVLTQSPGTLSLSPGERATLSCRASQSVSNSYLAWYQQKPGQAPRLLIYGASSRATGIPDRFSGSGSGTDFTLTISRLEPEDFAVYYCQQYDHSAGWTFGQGTKVEIK")
"0.16 ratio to control antibody 1"
>>> measurement("L1019H1000 (antibody, V domains shown) VH: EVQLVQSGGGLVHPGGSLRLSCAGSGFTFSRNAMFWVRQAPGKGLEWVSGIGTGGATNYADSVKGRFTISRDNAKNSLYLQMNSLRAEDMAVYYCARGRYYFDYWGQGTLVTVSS VL: EIVLTQSPGTLSLSPGERATLSCRASQSVSNSYLAWYQQKPGQAPRLLIFGASSRATGIPDRFSGSGSGTDFTLTISRLEPEDFAVYYCQQYDHSAGWTFGQGTKVEIK")
"1.79 ratio to control antibody 1"
>>> measurement("L1021H1027 (antibody, V domains shown) VH: EVQLVESGGGLVHPGGSLRLSCAASGFTFSRNAMFWVRQAPGKGLEWVSGIGTGGATSYADSVKGRFTISRDNAKNSLYLQMNSLRAEDTAVYYCARGRYYFPWWGQGTLVTVSS VL: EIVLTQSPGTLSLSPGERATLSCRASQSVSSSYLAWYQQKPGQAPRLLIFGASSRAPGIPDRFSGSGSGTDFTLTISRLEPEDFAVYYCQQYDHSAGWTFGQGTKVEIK")
"0.29 ratio to control antibody 1"
>>> measurement("L1024H1000 (antibody, V domains shown) VH: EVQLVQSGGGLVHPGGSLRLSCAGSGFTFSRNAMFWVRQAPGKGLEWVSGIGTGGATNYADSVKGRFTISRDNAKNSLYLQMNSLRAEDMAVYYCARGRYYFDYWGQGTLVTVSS VL: EIVLTQSPGTLSLSPGERATLSCRASQSVSNSYLAWYQQKPGQAPRLLIFGASSRAPGIPDRFSGSGSGTDFTLTISRLEPEDFAVYYCQQYDHSAGWTFGQGTKVEIK")
"0.69 ratio to control antibody 1"
>>> measurement("L1013H1000 (antibody, V domains shown) VH: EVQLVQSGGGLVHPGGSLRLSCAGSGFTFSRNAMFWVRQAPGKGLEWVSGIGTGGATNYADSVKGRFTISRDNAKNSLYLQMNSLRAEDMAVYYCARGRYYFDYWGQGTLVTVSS VL: EIVLTQSPGTLSLSPGERATLSCRASQSVSNSYLAWYQQKPGQAPRLLIFGASSRATGIPDRFSGSGSGTDFTLTISRLEPEDFAVYYCQQYDHSPPWTFGQGTKVEIK")
"0.24 ratio to control antibody 1"

# input binder: L1021H1000 (antibody, V domains shown) VH: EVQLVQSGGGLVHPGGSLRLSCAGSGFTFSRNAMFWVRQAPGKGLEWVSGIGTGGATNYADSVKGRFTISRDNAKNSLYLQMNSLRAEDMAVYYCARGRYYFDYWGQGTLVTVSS VL: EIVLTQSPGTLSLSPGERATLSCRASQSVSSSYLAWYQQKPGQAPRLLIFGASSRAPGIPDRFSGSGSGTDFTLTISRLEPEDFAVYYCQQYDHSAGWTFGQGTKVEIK ; wanted: its OD450/OD450 Control antibody 1
2.42 ratio to control antibody 1

Just for reference, patent US20210079088A1 is where these values come from.
